subject-of-test: Sentrin-specific protease 6 (Homo sapiens)
measurement-notes: SENP6 protease inhibitors, primary screen, biochemical, luminescence, uHTS (AID 2599)
measurement-conditions: Recombinant SENP6 catalytic domain, aminoluciferin luminescence; at 10 µM; active compounds read high
Among all 330,000 compounds or so, about 5,800 (1.8%) were called active. The sample holds actives, similar compounds and a random draw of the others, so the mix is not that of the screen.
Please enter yes where inhibition is greater than or equal to 10%, and no where it is lower.

Lookup: Confirm if inhibition reported for the molecule CN(c1ccc2nc3ccccc3c(=O)n2n1)C1CCCCC1 is 10% or above.
Found: yes

Lookup: Confirm if inhibition reported for the molecule CCCc1ccc(OCCNC(=O)c2ccco2)cc1 is 10% or above.
Found: yes

Lookup: Confirm if inhibition reported for the molecule Cc1cc(C(=O)Nc2nnc(C3CC3)s2)c(C)s1 is 10% or above.
Found: yes

Lookup: Confirm if inhibition reported for the molecule COC(=O)c1ccc(NCC(=O)c2ccccc2)cc1 is 10% or above.
Found: yes

Lookup: Confirm if inhibition reported for the molecule Cc1cnc(NC(=O)C2CCCC2)s1 is 10% or above.
Found: no

Lookup: Confirm if inhibition reported for the molecule CSc1ccccc1NC(=O)c1cc(Cl)sc1Cl is 10% or above.
Found: no

Lookup: Confirm if inhibition reported for the molecule CSc1ccccc1NC(=O)c1cc(C2CC2)on1 is 10% or above.
Found: yes

Lookup: Confirm if inhibition reported for the molecule CN(C(=O)CSc1nncc2ccccc12)C1CCCCC1 is 10% or above.
Found: no

Lookup: Confirm if inhibition reported for the molecule CN(C)C(=O)CSc1n[nH]c(-c2ccco2)n1 is 10% or above.
Found: no

Lookup: Confirm if inhibition reported for the molecule CC(OC(=O)c1ccc(S(=O)(=O)N2CCOCC2)cc1)c1ccccc1 (stereo not given) is 10% or above.
Found: no

Lookup: Confirm if inhibition reported for the molecule COc1ccc(OC)c(C(=O)c2coc3ccc(OC)cc23)c1 is 10% or above.
Found: no

Lookup: Confirm if inhibition reported for the molecule Nc1c(N(CCCO)C(=O)C2CCCC2)c(=O)[nH]c(=O)n1Cc1ccccc1 is 10% or above.
Found: no

Lookup: Confirm if inhibition reported for the molecule CCCOc1ccc(C(=O)NCCc2ccccc2)cc1 is 10% or above.
Found: yes

Lookup: Confirm if inhibition reported for the molecule CCNC(=O)CC1C(=O)N(c2ccc(OC)cc2)C(=O)N1CCOC (stereo not given) is 10% or above.
Found: no

Lookup: Confirm if inhibition reported for the molecule COc1ccc(CNC(=O)C(c2ccc(O)cc2)N(Cc2ccco2)C(=O)c2snc(C(N)=O)c2N)cc1 (stereo not given) is 10% or above.
Found: no

Lookup: Confirm if inhibition reported for the molecule CC(=O)Nc1ccc(S(=O)(=O)NNC(=O)CCc2ccccc2)cc1 is 10% or above.
Found: no

Lookup: Confirm if inhibition reported for the molecule O=C(NCCN1CCCC(O)C1)c1cc(COc2c(F)cccc2F)on1 (stereo not given) is 10% or above.
Found: no

Lookup: Confirm if inhibition reported for the molecule C=CCn1c(Cn2nnc3ccccc32)nnc1SCC(=O)N/N=C/c1cc(Br)cc(OC)c1O is 10% or above.
Found: yes

Lookup: Confirm if inhibition reported for the molecule O=C(Nc1nnc(C2CC2)s1)c1ccccn1 is 10% or above.
Found: yes

Lookup: Confirm if inhibition reported for the molecule Cc1ccc(SCC(=O)Nc2ncc(C)s2)cc1 is 10% or above.
Found: no

Lookup: Confirm if inhibition reported for the molecule Cc1cccc(NC(=O)CSCC(=O)Nc2nnc(C3CC3)s2)c1 is 10% or above.
Found: no

Lookup: Confirm if inhibition reported for the molecule CN(C(=O)c1cc2c(=O)n3ccccc3nc2s1)C1CCCCC1 is 10% or above.
Found: no

Lookup: Confirm if inhibition reported for the molecule CCCc1ccc(OCCNC(=O)c2ccccc2Br)cc1 is 10% or above.
Found: yes

Lookup: Confirm if inhibition reported for the molecule O=C(Nc1nnc(C2CC2)s1)c1cc(Cl)sc1Cl is 10% or above.
Found: no

Origin of measurements: PubChem BioAssay AID2599
